meta.source: PubChem BioAssay AID2745

Exercise: for every item that follows, state its recorded LAP4-GFP fluorescence (kMESF).
Assay Name: LAP4-GFP modulation potency in yeast, dose response, cell-based, MLPCN hits, flow cytometry (AID 2745);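 also: yeast exposed to compound for three hours at 30 degrees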
Test Conditions: S. cerevisiae LAP4-GFP reporter, flow cytometry fluorescence; at 33 µM (top of the series)
The source made the active and inactive calls. No rule for the calls is given here.

Lookup: Data request, read-out LAP4-GFP fluorescence (kMESF), for `O=[N+]([O-])c1cnc(Sc2ccncn2)s1`
Found: 17.8 kMESF (inactive)

Lookup: Data request, read-out LAP4-GFP fluorescence (kMESF), for `O=c1c2sc(-c3ccccc3)cc2nc2n1CCC2`
Found: 5.96 kMESF (inactive)

Lookup: Data request, read-out LAP4-GFP fluorescence (kMESF), for `O=C(Nc1ccccc1)ON=C1CCCC1`
Found: 4.79 kMESF (inactive)

Lookup: Data request, read-out LAP4-GFP fluorescence (kMESF), for `CC1=C(C)/C(=N\OS(=O)(=O)c2ccc(C)cc2)C=CC1=O`
Found: 5.77 kMESF (inactive)

Lookup: Data request, read-out LAP4-GFP fluorescence (kMESF), for `Oc1cc(-c2ccc(N3CCCCC3)nc2)cc2cccnc12`
Found: 4.15 kMESF (inactive)

Lookup: Data request, read-out LAP4-GFP fluorescence (kMESF), for CC1(c2ccccc2)ON(c2ccccc2C(F)(F)F)C1=O (stereo not given)
Found: 5.97 kMESF (inactive)

Lookup: Data request, read-out LAP4-GFP fluorescence (kMESF), for `COc1ccc(N2C(=O)C(Cl)=C(NCc3ccccc3)C2=O)cc1`
Found: 6.61 kMESF (inactive)

Lookup: Data request, read-out LAP4-GFP fluorescence (kMESF), for `O=[N+]([O-])c1c(Nc2ccccn2)cc(Cl)c2nonc12`
Found: 36.2 kMESF (inactive)

Lookup: Data request, read-out LAP4-GFP fluorescence (kMESF), for `c1ccc(-c2csc(Nc3cccnc3)n2)nc1`
Found: 3.67 kMESF (inactive)

Lookup: Data request, read-out LAP4-GFP fluorescence (kMESF), for `COc1ccc(/C=C/C(=O)c2cc(Br)ccc(=O)c2O)cc1`
Found: -33.8 kMESF (inactive)

Lookup: Data request, read-out LAP4-GFP fluorescence (kMESF), for `CCCCCCCCCCCCCCCC[n+]1cccc2ccccc21`
Found: 1.21 kMESF (inactive)

Lookup: Data request, read-out LAP4-GFP fluorescence (kMESF), for `CC[C@@]1(c2ccccc2OC)ON(c2ccccc2C(F)(F)F)C1=O`
Found: 6.51 kMESF (inactive)

Lookup: Data request, read-out LAP4-GFP fluorescence (kMESF), for `O=S(=O)(c1ccccc1)c1ccc(C(F)(F)F)cn1`
Found: 4.29 kMESF (inactive)

Lookup: Data request, read-out LAP4-GFP fluorescence (kMESF), for COc1ccc(Cl)cc1C(Nc1cccnc1)c1ccc2cccnc2c1O (stereo not given)
Found: 19.3 kMESF (inactive)

Lookup: Data request, read-out LAP4-GFP fluorescence (kMESF), for `COc1ccc(/C=C2/C(=O)ON=C2c2ccccc2)cc1OC`
Found: 14 kMESF (inactive)

Lookup: Data request, read-out LAP4-GFP fluorescence (kMESF), for `CC(C)[C@]1(c2ccccc2)ON(c2ccccc2C(F)(F)F)C1=O`
Found: 2.53 kMESF (inactive)

Lookup: Data request, read-out LAP4-GFP fluorescence (kMESF), for `O=C(Nc1nnc(-c2ccc3c(c2)CCCC3)o1)c1ccc(Cl)cc1Cl`
Found: 5.77 kMESF (inactive)

Lookup: Data request, read-out LAP4-GFP fluorescence (kMESF), for `Cc1ccccc1OCC(=O)NNC(=S)NC(=O)c1ccco1`
Found: 6.11 kMESF (inactive)

Lookup: Data request, read-out LAP4-GFP fluorescence (kMESF), for `COc1ccc(-c2cc(C(F)(F)F)nc(S(C)(=O)=O)n2)cc1`
Found: 10.6 kMESF (inactive)

Lookup: Data request, read-out LAP4-GFP fluorescence (kMESF), for CC(c1ccccc1)N1C(=O)/C(=C/c2ccncc2)SC1=S (stereo not given)
Found: 11.3 kMESF (inactive)

Lookup: Data request, read-out LAP4-GFP fluorescence (kMESF), for `O=C(c1ccccn1)c1conc1C(=O)c1ccc(Br)cc1`
Found: 9.07 kMESF (inactive)

Lookup: Data request, read-out LAP4-GFP fluorescence (kMESF), for CCCCC1OC23CCCCC2C(C#N)(C(=N)O3)C1(C#N)C#N (stereo not given)
Found: 3.98 kMESF (inactive)

Lookup: Data request, read-out LAP4-GFP fluorescence (kMESF), for `O=c1[nH]c(-c2ccc(Cl)cc2)cs1`
Found: 3.03 kMESF (inactive)

Lookup: Data request, read-out LAP4-GFP fluorescence (kMESF), for `COc1cc(N=c2ssnc2Cl)cc(OC)c1`
Found: 11.3 kMESF (inactive)

Lookup: Data request, read-out LAP4-GFP fluorescence (kMESF), for `Cc1ccc(/C=C2\C(=O)NC(=S)N(c3ccccc3F)C2=O)s1`
Found: 5.57 kMESF (inactive)

----------
Exercise: for every item that follows, state its recorded LAP4-GFP fluorescence (kMESF).
Assay Name: LAP4-GFP modulation potency in yeast, dose response, cell-based, MLPCN hits, flow cytometry (AID 2745);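 also: yeast exposed to compound for three hours at 30 degrees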
Test Conditions: S. cerevisiae LAP4-GFP reporter, flow cytometry fluorescence; at 33 µM (top of the series)
Active and inactive are the calls of the source. The rule behind the calls is not given here.

Lookup: Data request, read-out LAP4-GFP fluorescence (kMESF), for `CCc1nc2ccccc2c(=O)n1NC(=O)c1c(O)c2ccccc2n(CC)c1=O`
Found: 3.31 kMESF (inactive)

Lookup: Data request, read-out LAP4-GFP fluorescence (kMESF), for `COc1cccc(/C=C2\C(=O)N(c3cccc(C)c3)C(=O)c3ccccc32)c1`
Found: 9.02 kMESF (inactive)

Lookup: Data request, read-out LAP4-GFP fluorescence (kMESF), for `Cn1ncc2c(O/N=C(\N)c3ccc(C(C)(C)C)cc3)ncnc21`
Found: 5.61 kMESF (inactive)

Lookup: Data request, read-out LAP4-GFP fluorescence (kMESF), for `COc1ccc(C(=O)NC(=S)NNC(=O)CCc2ccccc2)cc1`
Found: 5.9 kMESF (inactive)

Lookup: Data request, read-out LAP4-GFP fluorescence (kMESF), for `CC(=O)NN1C(=O)/C(=C/c2ccc(Br)o2)SC1=S`
Found: 2.52 kMESF (inactive)

Lookup: Data request, read-out LAP4-GFP fluorescence (kMESF), for `Cc1ccc2nc(/C(C#N)=C/c3ccc(O)c(O)c3)[nH]c2c1`
Found: 4.39 kMESF (inactive)

Lookup: Data request, read-out LAP4-GFP fluorescence (kMESF), for `O=C(CCS(=O)(=O)c1ccccc1)Nc1nc(-c2ccccn2)cs1`
Found: 3.91 kMESF (inactive)

Lookup: Data request, read-out LAP4-GFP fluorescence (kMESF), for `N/C(=N\OC(=O)c1cccc(Br)c1)c1ccccc1`
Found: 4.51 kMESF (inactive)

Lookup: Data request, read-out LAP4-GFP fluorescence (kMESF), for `O=C1Nc2ccc(Br)cc2/C1=C/C(=O)c1ccc2c(c1)OCO2`
Found: 10.4 kMESF (inactive)

Lookup: Data request, read-out LAP4-GFP fluorescence (kMESF), for `O=C1c2cccc3c([N+](=O)[O-])ccc(c23)C(=O)N1c1ccccn1`
Found: 7.78 kMESF (inactive)

Lookup: Data request, read-out LAP4-GFP fluorescence (kMESF), for COc1ccc(N2C(=O)CC(Sc3ncn[nH]3)C2=O)c(OC)c1 (centres undefined)
Found: 13.7 kMESF (inactive)

Lookup: Data request, read-out LAP4-GFP fluorescence (kMESF), for `O=C(/C=C/c1ccccc1)NC(=S)NNC(=O)Cc1cccs1`
Found: 3.64 kMESF (inactive)

Lookup: Data request, read-out LAP4-GFP fluorescence (kMESF), for `CN(C)c1ccc(N=Cc2nc(-c3ccccc3)oc2OC(=O)c2ccccc2)cc1`
Found: 4.09 kMESF (inactive)

Lookup: Data request, read-out LAP4-GFP fluorescence (kMESF), for `Cc1cccc(N2C(=O)C(Cl)=C(Nc3c(C)n(C)n(-c4ccccc4)c3=O)C2=O)c1C`
Found: 6.11 kMESF (inactive)

Lookup: Data request, read-out LAP4-GFP fluorescence (kMESF), for `COc1ccc(N2CCN(C(=O)c3ccccc3)CC2)c([N+](=O)[O-])c1`
Found: 6.87 kMESF (inactive)

Lookup: Data request, read-out LAP4-GFP fluorescence (kMESF), for `O=C(Oc1oc(-c2ccco2)nc1C=Nc1ccc(Cl)cc1)c1ccco1`
Found: 8.92 kMESF (inactive)

Lookup: Data request, read-out LAP4-GFP fluorescence (kMESF), for `COC(CNC(=O)c1ccc2c3c(onc13)-c1ccccc1C2=O)OC`
Found: 2.86 kMESF (inactive)

Lookup: Data request, read-out LAP4-GFP fluorescence (kMESF), for `O=C(c1ccc([N+](=O)[O-])o1)N1CCN(c2nc3c(F)cc(F)cc3s2)CC1`
Found: -0.9 kMESF (inactive)

Lookup: Data request, read-out LAP4-GFP fluorescence (kMESF), for `O=S(=O)(/N=C(\Sc1ccc(Cl)cc1)c1ccccc1)c1ccccc1`
Found: 12.4 kMESF (inactive)

Lookup: Data request, read-out LAP4-GFP fluorescence (kMESF), for `CCN1/C(=C/C=C/c2sc3ccccc3[n+]2CC)Sc2ccccc21`
Found: 7.72 kMESF (inactive)

Lookup: Data request, read-out LAP4-GFP fluorescence (kMESF), for `CN(C)c1ccc(/C=C/c2cc[n+](C)cc2)cc1`
Found: 1.33 kMESF (inactive)

Lookup: Data request, read-out LAP4-GFP fluorescence (kMESF), for `COc1ccc(C(=O)NC(=S)NNC(=O)c2cnccn2)cc1OC`
Found: 9.2 kMESF (inactive)

Lookup: Data request, read-out LAP4-GFP fluorescence (kMESF), for `CCCc1cc(N2CCN(c3ccccn3)CC2)n2nc(C)c(-c3ccccc3)c2n1`
Found: 5.75 kMESF (inactive)

Lookup: Data request, read-out LAP4-GFP fluorescence (kMESF), for `Cc1cc(=O)oc2cc(Oc3ccc([N+](=O)[O-])cc3C(F)(F)F)ccc12`
Found: 3.64 kMESF (inactive)

Lookup: Data request, read-out LAP4-GFP fluorescence (kMESF), for `O=C(COc1c(Br)cc(Br)c2cccnc12)N1CCc2ccccc2C1`
Found: 12.3 kMESF (inactive)

Lookup: Data request, read-out LAP4-GFP fluorescence (kMESF), for CCOC(=O)c1c(C)oc2c1c(C(c1cccnc1)N1CCOCC1)c(O)c1ccccc12 (centres undefined)
Found: 4.07 kMESF (inactive)

Lookup: Data request, read-out LAP4-GFP fluorescence (kMESF), for `COc1cc(CNC(=O)CCCCCCC(C)C)ccc1O`
Found: 3.74 kMESF (inactive)

Lookup: Data request, read-out LAP4-GFP fluorescence (kMESF), for `Oc1c(CN2CCN(c3ccc(F)cc3)CC2)cc(Cl)c2cccnc12`
Found: 13.1 kMESF (inactive)

Lookup: Data request, read-out LAP4-GFP fluorescence (kMESF), for `CCC(=O)Oc1oc(-c2ccccc2)nc1C=Nc1ccccc1OC`
Found: 4.64 kMESF (inactive)

Lookup: Data request, read-out LAP4-GFP fluorescence (kMESF), for `C=CCN1C(=O)/C(=C/c2cccs2)C(=O)NC1=S`
Found: 4.47 kMESF (inactive)

Lookup: Data request, read-out LAP4-GFP fluorescence (kMESF), for `CCN1C(=O)/C(=C\C(=O)c2cccs2)c2cc(Br)ccc21`
Found: 12 kMESF (inactive)

Lookup: Data request, read-out LAP4-GFP fluorescence (kMESF), for `CCN(CC)c1ccc(/C=C2/C(=O)c3ccc(C(=O)O)cc3C2=O)cc1`
Found: 13.8 kMESF (inactive)

Lookup: Data request, read-out LAP4-GFP fluorescence (kMESF), for `O=c1c(-c2ccc(Cl)cc2)[n+]([O-])c2ccccc2n1O`
Found: 16.1 kMESF (inactive)

Lookup: Data request, read-out LAP4-GFP fluorescence (kMESF), for `CCCCOc1ccc(C(=O)NNC(=S)NC(=O)CC)cc1`
Found: 9.81 kMESF (inactive)

Lookup: Data request, read-out LAP4-GFP fluorescence (kMESF), for `Fc1cccc(Nc2ncnc3c2cnn3-c2ccccc2)c1`
Found: 5.86 kMESF (inactive)

Lookup: Data request, read-out LAP4-GFP fluorescence (kMESF), for `O=C(Nc1nnc(-c2ccc(F)cc2)o1)c1cccc([N+](=O)[O-])c1`
Found: 6.91 kMESF (inactive)

Lookup: Data request, read-out LAP4-GFP fluorescence (kMESF), for `Cc1ccccc1N1C(=O)C(Cl)=C(N2CCN(c3ccccc3)CC2)C1=O`
Found: 3.41 kMESF (inactive)

Lookup: Data request, read-out LAP4-GFP fluorescence (kMESF), for `CCC(=O)Nc1ccc(NC(=O)c2cc3ccccc3o2)c(OC)c1`
Found: 3.41 kMESF (inactive)

Lookup: Data request, read-out LAP4-GFP fluorescence (kMESF), for `COc1ccc(OC)c(S(=O)(=O)ON2C(=O)c3ccccc3C2=O)c1`
Found: 1.75 kMESF (inactive)

Lookup: Data request, read-out LAP4-GFP fluorescence (kMESF), for `COc1ccc(NC2=C(Cl)C(=O)N(CCc3ccccc3)C2=O)cc1`
Found: 5.81 kMESF (inactive)

Lookup: Data request, read-out LAP4-GFP fluorescence (kMESF), for Cc1[nH]n(-c2ncc(-c3ccccc3)s2)c(=O)c1C(c1ccc(Cl)cc1)C(C#N)C#N (centres undefined)
Found: 8.02 kMESF (inactive)

Lookup: Data request, read-out LAP4-GFP fluorescence (kMESF), for `NC(=O)COc1ccc(C(=O)/C=C2/C(=O)Nc3ccccc32)cc1`
Found: 6.78 kMESF (inactive)

Lookup: Data request, read-out LAP4-GFP fluorescence (kMESF), for `O=C1c2cccc3c([N+](=O)[O-])ccc(c23)C(=O)N1O`
Found: 3.64 kMESF (inactive)

Lookup: Data request, read-out LAP4-GFP fluorescence (kMESF), for CC(=O)n1cc(C(C[N+](=O)[O-])SCCN)c2ccccc21 (centres undefined)
Found: 4.35 kMESF (inactive)
